Source: ChEMBL document CHEMBL5032503

Target: Nuclear receptor subfamily 2 group E member 1 (Homo sapiens, UniProt Q9Y466)
Sequence (Q9Y466 whole entry, the tested form may be a part): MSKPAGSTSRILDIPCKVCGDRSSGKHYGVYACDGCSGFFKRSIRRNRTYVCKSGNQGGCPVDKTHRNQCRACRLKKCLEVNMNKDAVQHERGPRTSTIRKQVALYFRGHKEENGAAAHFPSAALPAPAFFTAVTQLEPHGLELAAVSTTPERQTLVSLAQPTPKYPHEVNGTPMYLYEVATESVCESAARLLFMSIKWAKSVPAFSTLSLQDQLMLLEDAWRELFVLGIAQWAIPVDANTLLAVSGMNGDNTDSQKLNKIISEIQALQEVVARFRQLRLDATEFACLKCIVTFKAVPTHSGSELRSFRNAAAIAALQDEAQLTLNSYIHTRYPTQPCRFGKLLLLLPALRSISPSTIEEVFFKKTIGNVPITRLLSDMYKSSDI
Assay: Stabilization of human recombinant TLX LBD assessed as change in melting temperature at 500 uM by DSF assay
Cut-off -0.5 °C on ΔTm, inclusive. At or above means fulfilled; below means not fulfilled.

Example entries begin here.
CC(=O)N1CCN(c2ccc(O)cc2)CC1 | fulfilled
Cc1cn(-c2cc(N)cc(C(F)(F)F)c2)cn1 | not fulfilled
CCCCOc1cc(C(=O)NC)c2ccccc2n1 | fulfilled

# check: ΔTm of O=C1Nc2ccccc2Nc2ccccc21 is greater than or equal to -0.5 °C fulfilled

Textbook exercise: given the entry Clc1ccc(C(c2ccccc2)N2CCNCC2)cc1 (stereo not drawn) , state whether its ΔTm is greater than or equal to -0.5 °C. not fulfilled

Decide: ΔTm of CNC(=O)c1cc(Cl)c(N)cc1OC >= -0.5 °C? fulfilled

Confirm if ΔTm reported for the compound O=C(O)CCCc1ccc(-c2ccccc2)cc1 is -0.5 °C or above. not fulfilled
